biological target: ATP-citrate synthase (Homo sapiens, UniProt P53396)
Sequence (P53396 whole entry): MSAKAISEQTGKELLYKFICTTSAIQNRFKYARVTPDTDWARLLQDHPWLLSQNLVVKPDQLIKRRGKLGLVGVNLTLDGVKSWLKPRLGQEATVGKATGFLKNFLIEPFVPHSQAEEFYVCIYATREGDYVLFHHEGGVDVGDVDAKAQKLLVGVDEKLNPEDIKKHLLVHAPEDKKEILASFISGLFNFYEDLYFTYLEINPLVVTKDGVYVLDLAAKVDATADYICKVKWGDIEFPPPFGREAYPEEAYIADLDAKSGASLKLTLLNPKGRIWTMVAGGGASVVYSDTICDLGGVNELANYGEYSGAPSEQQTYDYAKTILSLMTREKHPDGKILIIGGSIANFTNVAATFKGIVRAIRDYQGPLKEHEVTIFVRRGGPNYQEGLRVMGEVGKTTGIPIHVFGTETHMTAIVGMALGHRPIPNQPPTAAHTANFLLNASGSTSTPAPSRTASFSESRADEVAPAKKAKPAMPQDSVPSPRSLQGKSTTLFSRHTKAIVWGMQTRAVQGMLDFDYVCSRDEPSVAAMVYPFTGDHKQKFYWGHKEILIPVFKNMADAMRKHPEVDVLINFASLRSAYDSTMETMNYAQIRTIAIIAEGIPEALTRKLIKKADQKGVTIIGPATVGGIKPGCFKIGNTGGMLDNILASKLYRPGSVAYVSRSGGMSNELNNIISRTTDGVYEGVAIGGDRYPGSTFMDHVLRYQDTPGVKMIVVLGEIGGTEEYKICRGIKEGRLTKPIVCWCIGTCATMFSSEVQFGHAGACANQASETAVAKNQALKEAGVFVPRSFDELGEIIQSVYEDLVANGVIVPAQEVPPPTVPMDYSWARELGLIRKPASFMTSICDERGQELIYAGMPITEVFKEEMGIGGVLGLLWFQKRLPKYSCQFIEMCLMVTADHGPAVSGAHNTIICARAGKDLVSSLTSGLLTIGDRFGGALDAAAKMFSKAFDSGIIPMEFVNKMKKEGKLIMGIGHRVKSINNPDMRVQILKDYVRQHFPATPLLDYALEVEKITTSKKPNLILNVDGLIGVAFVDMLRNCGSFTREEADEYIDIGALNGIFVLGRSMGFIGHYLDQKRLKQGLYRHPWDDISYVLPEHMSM
reported endpoint: IC50

Sample records with IC50:
{"chemical structure": "CC1=CCC[C@H]2[C@](C)(Cc3cc(O)cc4[nH]c(=O)oc34)[C@@H](C)CC[C@]12C", "result": "2.8 to 27 µM"}
{"chemical structure": "CC1=CCC[C@H]2[C@](C)(Cc3cc(O)cc4ncoc34)[C@@H](C)CC[C@]12C", "result": "2.8 to 27 µM"}

ATP-citrate synthase (Homo sapiens, UniProt P53396) assay, compound C=C1CCC[C@H]2[C@](C)(Cc3cc(O)cc4nc5n(c34)CCC5)[C@@H](C)CC[C@]12C , recorded IC50 = 2.8 to 27 µM
